Hey, just so you know, these numbers are from ChEMBL document CHEMBL5150059.

Test system: Renilla
assayProcedure: Inhibition of recombinant renilla luciferase at 10 uM using coelenterazine as substrate incubated for 10 mins by luminescence based microplate reader analysis relative to control; values are per cent of control
recordedEndpoint: residual activity (%)

[P] COc1cc(C)c(C(C)C)cc1S(=O)(=O)n1cnc([N+](=O)[O-])c1
[Q] COc1cc(C)c(C(C)C)cc1S(=O)(=O)n1cnc2ccccc21
Request: Identify the entry with the larger residual activity. Options: P and Q State the label of the item chosen.
Result: P
(P: 67%, Q: 45%)

[A] COc1cc(C)c(C(C)C)cc1S(=O)(=O)n1ccc(C)c1
[B] COc1cc(C)c(C(C)C)cc1S(=O)(=O)Nc1cccc(C)n1
[C] COc1cc(C)c(C(C)C)cc1S(=O)(=O)Nc1ccccn1
Request: Let's sort these by residual activity, smallest first. Go ahead? // ordering of labels required in reply
Result: B, C, A
